# assayComment: Single-dose intravenous pharmacokinetics in rats
# Format: in vivo, rat
# conditionInfo: male; Sprague-Dawley rat, M, n=6, 1 mg/kg single IV; plasma LC/MS/MS, non-compartmental; one time point per animal; read-out: V
measuredQuantity: Vd (L/kg)
Numeric answer only, unit L/kg assumed.

Request: Write down Vd measured for item `CC(=O)N[C@H]1CSSC[C@@H](C(N)=O)NC(=O)[C@H](CC(=O)O)NC(=O)[C@@H]2CCCN2C(=O)CNC(=O)[C@H](CCCCN)NC(=O)[C@H](CC(=O)O)NC(=O)CNC(=O)[C@H](CCCNC(=N)N)NC1=O`
Result: 0.64

---

# assayComment: Single-dose intravenous pharmacokinetics in rats
# Assay type: in vivo, rat
# conditionInfo: male; Sprague-Dawley rat, M, n=6, single IV; plasma LC/MS/MS, non-compartmental; one time point per animal; read-out: Cl_obs (converted)
measuredQuantity: clearance (mL/min/kg)
Numeric answer only, unit mL/min/kg assumed.

Request: Write down clearance measured for item `CC(=O)N[C@H]1CSSC[C@@H](C(N)=O)NC(=O)[C@H](CC(=O)O)NC(=O)[C@@H]2CCCN2C(=O)CNC(=O)[C@H](CCCCN)NC(=O)[C@H](CC(=O)O)NC(=O)CNC(=O)[C@H](CCCNC(=N)N)NC1=O`
Result: 5.8

---

# assayComment: Single-dose intravenous pharmacokinetics in dogs
# Type: in vivo, dog
# conditionInfo: female; Beagle dog, F, n=3, 1 mg/kg single IV; plasma LC/MS/MS, non-compartmental; mean (SD); read-out: Cl_obs (converted)
measuredQuantity: clearance (mL/min/kg)
Numeric answer only, unit mL/min/kg assumed.

Request: Write down clearance measured for item CC(=O)N[C@H]1CSSC[C@@H](C(N)=O)NC(=O)[C@H](CC(=O)O)NC(=O)[C@@H]2CCCN2C(=O)CNC(=O)[C@H](CCCCN)NC(=O)[C@H](CC(=O)O)NC(=O)CNC(=O)[C@H](CCCNC(=N)N)NC1=O [CEND-1]
Result: 4.25

---

# assayComment: Single-dose intravenous pharmacokinetics in rats
# Type: in vivo, rat
# conditionInfo: Sprague-Dawley, rat, plasma; rats, single intravenous dose; read-out: average half-life
# Procedure: The in vivo pharmacokinetic profile of CEND-1 after a single dose was evaluated in four non-GLP animal studies including Sprague-Dawley rats, Beagle dogs, cynomolgus monkeys and BALB/c mice following the intravenous injection of CEND-1 at various doses ([…]; 1.5, 4.5 and 13.5 mg/kg for mice) (Table 1). […] Plasma CEND-1 was quantified by validated liquid chromatography coupled with a tandem mass spectrometry (LC/MS/MS) assay. […]
measuredQuantity: half-life

Request: Write down half-life measured for item CC(=O)N[C@H]1CSSC[C@@H](C(N)=O)NC(=O)[C@H](CC(=O)O)NC(=O)[C@@H]2CCCN2C(=O)CNC(=O)[C@H](CCCCN)NC(=O)[C@H](CC(=O)O)NC(=O)CNC(=O)[C@H](CCCNC(=N)N)NC1=O [CEND-1]
Result: ~30 min

---

# assayComment: Single-dose intravenous pharmacokinetics in rats
# Type: in vivo, rat
# conditionInfo: male; Sprague-Dawley rat, M, n=6, 5 mg/kg single IV; plasma LC/MS/MS, non-compartmental; one time point per animal
measuredQuantity: C0
Kindly write the number and append the unit.

Request: Write down C0 measured for item CC(=O)N[C@H]1CSSC[C@@H](C(N)=O)NC(=O)[C@H](CC(=O)O)NC(=O)[C@@H]2CCCN2C(=O)CNC(=O)[C@H](CCCCN)NC(=O)[C@H](CC(=O)O)NC(=O)CNC(=O)[C@H](CCCNC(=N)N)NC1=O [CEND-1]
Result: 24300 ng/mL

---

# assayComment: Single-dose intravenous pharmacokinetics in mice
# Type: in vivo, mouse
# conditionInfo: male, BALB/c, mouse, plasma, iv, 13.5 mg/kg, BALB/c mouse, M, n=3, 13.5 mg/kg single IV; plasma LC/MS/MS, non-compartmental; one time point per animal; read-out: t1/2 (converted)
measuredQuantity: half-life (min)
Numeric answer only, unit min assumed.

Request: Write down half-life measured for item `CC(=O)N[C@H]1CSSC[C@@H](C(N)=O)NC(=O)[C@H](CC(=O)O)NC(=O)[C@@H]2CCCN2C(=O)CNC(=O)[C@H](CCCCN)NC(=O)[C@H](CC(=O)O)NC(=O)CNC(=O)[C@H](CCCNC(=N)N)NC1=O`
Result: 32.8

---

# assayComment: Single-dose intravenous pharmacokinetics in dogs
# Type: in vivo, dog
# conditionInfo: female; Beagle dog, F, n=5, 75 mg/kg single IV; plasma LC/MS/MS, non-compartmental; mean (SD); read-out: Cl_obs (converted)
measuredQuantity: clearance

Request: Write down clearance measured for item `CC(=O)N[C@H]1CSSC[C@@H](C(N)=O)NC(=O)[C@H](CC(=O)O)NC(=O)[C@@H]2CCCN2C(=O)CNC(=O)[C@H](CCCCN)NC(=O)[C@H](CC(=O)O)NC(=O)CNC(=O)[C@H](CCCNC(=N)N)NC1=O`
Result: 3.88 mL/min/kg

---

# assayComment: Single-dose intravenous pharmacokinetics in rats
# Assay type: in vivo, rat
# conditionInfo: male; Sprague-Dawley rat, M, n=6, 1 mg/kg single IV; plasma LC/MS/MS, non-compartmental; one time point per animal
# Protocol: The in vivo pharmacokinetic profile of CEND-1 after a single dose was evaluated in four non-GLP animal studies including Sprague-Dawley rats, Beagle dogs, cynomolgus monkeys and BALB/c mice following the intravenous injection of CEND-1 at various doses ([…]; 1.5, 4.5 and 13.5 mg/kg for mice) (Table 1). […] Plasma CEND-1 was quantified by validated liquid chromatography coupled with a tandem mass spectrometry (LC/MS/MS) assay. […]
measuredQuantity: C0 (ng/mL)
Numeric answer only, unit ng/mL assumed.

Request: Write down C0 measured for item CC(=O)N[C@H]1CSSC[C@@H](C(N)=O)NC(=O)[C@H](CC(=O)O)NC(=O)[C@@H]2CCCN2C(=O)CNC(=O)[C@H](CCCCN)NC(=O)[C@H](CC(=O)O)NC(=O)CNC(=O)[C@H](CCCNC(=N)N)NC1=O [CEND-1]
Result: 4230

---

# assayComment: Single-dose intravenous pharmacokinetics in mice
# Type: in vivo, mouse
# conditionInfo: male; BALB/c mouse, M, n=3, 13.5 mg/kg single IV; plasma LC/MS/MS, non-compartmental; one time point per animal; read-out: Cl_obs (converted)
measuredQuantity: clearance (mL/min/kg)
Numeric answer only, unit mL/min/kg assumed.

Request: Write down clearance measured for item CC(=O)N[C@H]1CSSC[C@@H](C(N)=O)NC(=O)[C@H](CC(=O)O)NC(=O)[C@@H]2CCCN2C(=O)CNC(=O)[C@H](CCCCN)NC(=O)[C@H](CC(=O)O)NC(=O)CNC(=O)[C@H](CCCNC(=N)N)NC1=O [CEND-1]
Result: 21.3

---

# assayComment: Single-dose intravenous pharmacokinetics in rats
# Format: in vivo, rat
# conditionInfo: male; Sprague-Dawley rat, M, n=6, 1 mg/kg single IV; plasma LC/MS/MS, non-compartmental; one time point per animal
# Experimental: The in vivo pharmacokinetic profile of CEND-1 after a single dose was evaluated in four non-GLP animal studies including Sprague-Dawley rats, Beagle dogs, cynomolgus monkeys and BALB/c mice following the intravenous injection of CEND-1 at various doses ([…]; 1.5, 4.5 and 13.5 mg/kg for mice) (Table 1). […] Plasma CEND-1 was quantified by validated liquid chromatography coupled with a tandem mass spectrometry (LC/MS/MS) assay. […]
measuredQuantity: AUC(0-inf) (ng·h/mL)
Numeric answer only, unit ng·h/mL assumed.

Request: Write down AUC(0-inf) measured for item `CC(=O)N[C@H]1CSSC[C@@H](C(N)=O)NC(=O)[C@H](CC(=O)O)NC(=O)[C@@H]2CCCN2C(=O)CNC(=O)[C@H](CCCCN)NC(=O)[C@H](CC(=O)O)NC(=O)CNC(=O)[C@H](CCCNC(=N)N)NC1=O`
Result: 1770

---

# assayComment: Single-dose intravenous pharmacokinetics in dogs
# Assay type: in vivo, dog
# conditionInfo: female; Beagle dog, F, n=5, 75 mg/kg single IV; plasma LC/MS/MS, non-compartmental; mean (SD); read-out: V
measuredQuantity: Vd

Request: Write down Vd measured for item `CC(=O)N[C@H]1CSSC[C@@H](C(N)=O)NC(=O)[C@H](CC(=O)O)NC(=O)[C@@H]2CCCN2C(=O)CNC(=O)[C@H](CCCCN)NC(=O)[C@H](CC(=O)O)NC(=O)CNC(=O)[C@H](CCCNC(=N)N)NC1=O`
Result: 0.208 L/kg

---

# assayComment: Single-dose intravenous pharmacokinetics in rats
# Format: in vivo, rat
# conditionInfo: male; Sprague-Dawley rat, M, n=6, 75 mg/kg single IV; plasma LC/MS/MS, non-compartmental; one time point per animal; read-out: t1/2 (converted)
measuredQuantity: half-life (min)
Numeric answer only, unit min assumed.

Request: Write down half-life measured for item `CC(=O)N[C@H]1CSSC[C@@H](C(N)=O)NC(=O)[C@H](CC(=O)O)NC(=O)[C@@H]2CCCN2C(=O)CNC(=O)[C@H](CCCCN)NC(=O)[C@H](CC(=O)O)NC(=O)CNC(=O)[C@H](CCCNC(=N)N)NC1=O`
Result: 20.5
